Measured protein stability index of individual entries
B1: NET1 (parent)
chain: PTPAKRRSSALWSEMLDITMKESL

- Variants of: B1
- Measurement notes: protein stability index of a GFP-peptide fusion (GPS, HEK-293T) (PSI 1-6); higher = more stable;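 also: lentivirally expressed fusions sorted by FACS into six bins by GFP to DsRed ratio, PSI derived from sequencing read proportions per bin multiplied by bin number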
- Conditions: c terminus: a fixed tail appended
Quick one: just the number, no unit, thanks!

INSERT INTO measurements (mutation_name, reported_result) VALUES
  ('S9V', 1.88);

Here is another variant to look at.
Would you kindly share the measured protein stability index for S13R ?
2.42
